Molecular target: T1, membranous CD4 (wild human CD4 expressed on cells) (human, UniProt P01730 26-458)
T1 construct: whole, on cells; also called T A2.01/CD4 cells; T AN2.01/CD4 cells
Experiment: flow cytometry, T A2.01/CD4 cells, Fab at 10 µg/ml, fluorescein-labeled anti-kappa chain antibody
assay.endpoint: percent of cells under the marker bar of the histogram (%)
Report only the number, with the unit % understood.

Short answer for mutant Fab W36-H of the 13B8.2 antibody (Fab, V domains shown, Chimeric Fab with human CH1-γ1 and Cκ; baculovirus/Sf9) VH: QVQLKQSGPGLVQPSQSLSITCTVSGFSLTTFGVHAVRQSPGKGLEWLGVIWRSGITDYNVPFMSRLSITKDNSKSQVFFKLNSLQPDDTAIYYCAKNDPGTGFAYWGQGTLVTVSA VL: DIQMTQSPASLSASVGETVTFTCRASENIYSYLAWYQQKQGKSPQLLVHDAKTLAEGVPSRFSGGGSGTQFSLKINTLQPEDFGTYYCQHHYGNPPTFGGGTKLEIK : percent of cells under the marker bar of the histogram was 65.5

Short answer for wild recombinant chimeric Fab fragment of the 13B8.2 anti-CD4 antibody (Fab, V domains shown, Chimeric Fab: murine V domains fused to human CH1-γ1 (Fdγ1) and human Cκ, expressed in baculovirus/Sf9 cells, purified on protein G; also called Fabwild 13B8.2; wild Fab) VH: QVQLKQSGPGLVQPSQSLSITCTVSGFSLTTFGVHWVRQSPGKGLEWLGVIWRSGITDYNVPFMSRLSITKDNSKSQVFFKLNSLQPDDTAIYYCAKNDPGTGFAYWGQGTLVTVSA VL: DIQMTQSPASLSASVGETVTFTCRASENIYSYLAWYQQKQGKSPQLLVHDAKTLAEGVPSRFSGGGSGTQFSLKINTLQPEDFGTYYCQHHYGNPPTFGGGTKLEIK : percent of cells under the marker bar of the histogram was 84.8

Short answer for mutant Fab R53-H of the 13B8.2 antibody (Fab, V domains shown, Chimeric Fab with human CH1-γ1 and Cκ; baculovirus/Sf9) VH: QVQLKQSGPGLVQPSQSLSITCTVSGFSLTTFGVHWVRQSPGKGLEWLGVIWASGITDYNVPFMSRLSITKDNSKSQVFFKLNSLQPDDTAIYYCAKNDPGTGFAYWGQGTLVTVSA VL: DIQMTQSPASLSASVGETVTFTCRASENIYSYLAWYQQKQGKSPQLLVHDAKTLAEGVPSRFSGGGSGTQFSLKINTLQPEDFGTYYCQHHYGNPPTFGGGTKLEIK : percent of cells under the marker bar of the histogram was 43.2

Short answer for mutant Fab H35-H of the 13B8.2 antibody (Fab, V domains shown, Chimeric Fab with human CH1-γ1 and Cκ; baculovirus/Sf9) VH: QVQLKQSGPGLVQPSQSLSITCTVSGFSLTTFGVAWVRQSPGKGLEWLGVIWRSGITDYNVPFMSRLSITKDNSKSQVFFKLNSLQPDDTAIYYCAKNDPGTGFAYWGQGTLVTVSA VL: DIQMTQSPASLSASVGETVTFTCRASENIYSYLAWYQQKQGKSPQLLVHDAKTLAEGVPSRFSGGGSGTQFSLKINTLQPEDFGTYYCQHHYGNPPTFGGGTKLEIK : percent of cells under the marker bar of the histogram was 33.6

Short answer for mutant Fab W103-H of the 13B8.2 antibody (Fab, V domains shown, Chimeric Fab with human CH1-γ1 and Cκ; baculovirus/Sf9) VH: QVQLKQSGPGLVQPSQSLSITCTVSGFSLTTFGVHWVRQSPGKGLEWLGVIWRSGITDYNVPFMSRLSITKDNSKSQVFFKLNSLQPDDTAIYYCAKNDPGTGFAYAGQGTLVTVSA VL: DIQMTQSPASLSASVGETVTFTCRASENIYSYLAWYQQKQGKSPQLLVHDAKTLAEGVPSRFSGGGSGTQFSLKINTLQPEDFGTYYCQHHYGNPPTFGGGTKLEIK : percent of cells under the marker bar of the histogram was 6.76

Short answer for mutant Fab F32-H of the 13B8.2 antibody (Fab, V domains shown, Chimeric Fab with human CH1-γ1 and Cκ; baculovirus/Sf9; also called F32 mutant Fab) VH: QVQLKQSGPGLVQPSQSLSITCTVSGFSLTTAGVHWVRQSPGKGLEWLGVIWRSGITDYNVPFMSRLSITKDNSKSQVFFKLNSLQPDDTAIYYCAKNDPGTGFAYWGQGTLVTVSA VL: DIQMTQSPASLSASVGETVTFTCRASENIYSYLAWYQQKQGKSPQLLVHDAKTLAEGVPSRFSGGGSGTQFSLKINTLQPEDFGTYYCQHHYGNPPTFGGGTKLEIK : percent of cells under the marker bar of the histogram was 82.4
